System: PKC mediated IL-2 production in human primary T cells
assay.name: IL-2 ELISA, human primary T cell, anti CD3+CD28+ (whole cell functional assay for PKC mediated IL-2 production)
Assay type: cell-based
experimental.parameters: human primary T cells stimulated with anti-CD3 + anti-CD28, 24 h, IL-2 by ELISA, 8 pt, read-out: IL2 ELISA, Human primary T cell, anti-CD3 + CD28, 8 pt (IC50)

- structure.smiles.string: "COc1cc(Nc2ncc(Cl)c(NC[C@@H]3CCCN4CCCC[C@H]34)n2)cc(-n2nnnc2C)c1"
  tested.on: "PKC mediated IL-2 production in human primary T cells"
  IC50, nM: 126
- structure.smiles.string: "Cc1ccc(Nc2ncc(C#N)c(NC[C@@H]3CCCN4CCCC[C@H]34)n2)cc1-n1cnnn1"
  tested.on: "PKC mediated IL-2 production in human primary T cells"
  IC50, nM: 11.7
- structure.smiles.string: "Cc1cnc(Nc2cc(-n3cnnn3)c(C3CC3)cc2F)nc1NC[C@@H]1CCCN2CCCC[C@H]12"
  tested.on: "PKC mediated IL-2 production in human primary T cells"
  IC50, nM: 160
- structure.smiles.string: "N#Cc1cnc(Nc2cc(-n3cnnn3)c(C3CC3)cc2F)nc1NC[C@@H]1CCCN2CCCC[C@H]12"
  tested.on: "PKC mediated IL-2 production in human primary T cells"
  IC50, nM: 7.4
- structure.smiles.string: "Cc1nnnn1-c1ccc(F)c(Nc2ncc(N(C)C)c(NC[C@@H]3CCCN4CCCC[C@H]34)n2)c1"
  tested.on: "PKC mediated IL-2 production in human primary T cells"
  IC50, nM: 14600
- structure.smiles.string: "COc1cc(Nc2ncc(Cl)c(NC[C@@H]3CCCN4CCCC[C@H]34)n2)cc(OC)c1"
  tested.on: "PKC mediated IL-2 production in human primary T cells"
  IC50, nM: 412
- structure.smiles.string: "COc1cnc(Nc2ccc(C3CC3)c(C#N)c2)nc1NC[C@@H]1CCCN2CCCC[C@H]12"
  tested.on: "PKC mediated IL-2 production in human primary T cells"
  IC50, nM: 1310

###

Tested on: PKC mediated IL-2 production in human primary T cells
assay.name: IL-2 ELISA, human primary T cell, anti CD3+CD28+ (whole cell functional assay for PKC mediated IL-2 production)
Assay type: cell-based
experimental.parameters: human primary T cells stimulated with anti-CD3 + anti-CD28, 24 h, IL-2 by ELISA, 8 pt, read-out: IL2 ELISA, Human primary T cell, anti-CD3 + CD28, 8 pt (IC50)
Label Fulfilled when IC50 < 700 nM; otherwise Not fulfilled.

- molecule: "Cn1nnn(-c2cc(Nc3ncc(C#N)c(NC[C@@H]4CCCN5CCCC[C@H]45)n3)c(F)cc2OCC(O)CO)c1=O (stereo partly shown)"
  assigned.class: "Not fulfilled"
- molecule: "C[C@H](O)COc1cc(F)c(Nc2ncc(Cl)c(NC[C@@H]3CCCN4CCCC[C@H]34)n2)cc1-n1nnn(C)c1=O"
  assigned.class: "Fulfilled"
- molecule: "Fc1cc(C2CC2)c(-n2cnnn2)cc1Nc1nccc(NC[C@@H]2CCCN3CCCC[C@H]23)n1"
  assigned.class: "Not fulfilled"
- molecule: "O=c1[nH]c2cc(Nc3ncc(Cl)c(NC[C@@H]4CCCN5CCCC[C@H]45)n3)ccc2o1"
  assigned.class: "Not fulfilled"
- molecule: "COc1ccc(Nc2ncc(F)c(NC[C@@H]3CCCN4CCCC[C@H]34)n2)cc1-n1nnnc1C"
  assigned.class: "Fulfilled"
- molecule: "COc1cc(Nc2ncc(N(C)C)c(NC[C@@H]3CCCN4CCCC[C@H]34)n2)cc(OC)c1"
  assigned.class: "Not fulfilled"

###

Tested on: PKC mediated IL-2 production in human primary T cells
assay.name: IL-2 ELISA, human primary T cell, anti CD3+CD28+ (whole cell functional assay for PKC mediated IL-2 production)
Format: cell-based
experimental.parameters: human primary T cells stimulated with anti-CD3 + anti-CD28, 24 h, IL-2 by ELISA, 8 pt, read-out: IL2 ELISA, Human primary T cell, anti-CD3 + CD28, 8 pt (IC50)
pIC50: −log10 of the molar value.
pIC50 by entry:

- structure.smiles.string: "Fc1cc(C2CC2)c(-n2cnnn2)cc1Nc1ncc(Cl)c(NC[C@@H]2CCCN3CCCC[C@H]23)n1"
  pIC50: 6.80
- structure.smiles.string: "COc1cc(F)cc(Nc2ncc(F)c(NC[C@@H]3CCCN4CCCC[C@H]34)n2)c1"
  pIC50: 6.15
- structure.smiles.string: "COc1ccc(Nc2ncc(N(C)C)c(NC[C@@H]3CCCN4CCCC[C@H]34)n2)cc1-n1nnnc1C"
  pIC50: 5.01
- structure.smiles.string: "Fc1cnc(Nc2ccccc2)nc1NC[C@@H]1CCCN2CCCC[C@H]12"
  pIC50: 5.35
- structure.smiles.string: "N#Cc1cc(Nc2ncc(Cl)c(NC[C@@H]3CCCN4CCCC[C@H]34)n2)c(F)cc1C1CC1"
  pIC50: 6.46
- structure.smiles.string: "Cc1ccc(Nc2ncc(C)c(NC[C@@H]3CCCN4CCCC[C@H]34)n2)cc1-n1cnnn1"
  pIC50: 5.87

###

Tested on: PKC mediated IL-2 production in human primary T cells
assay.name: IL-2 ELISA, human primary T cell, anti CD3+CD28+ (whole cell functional assay for PKC mediated IL-2 production)
Format: cell-based
experimental.parameters: human primary T cells stimulated with anti-CD3 + anti-CD28, 24 h, IL-2 by ELISA, 8 pt, read-out: IL2 ELISA, Human primary T cell, anti-CD3 + CD28, 8 pt (IC50)
IC50 by entry:

- molecule: "Cn1nnn(-c2cc(Nc3ncc(C#N)c(NC[C@@H]4CCCN5CCCC[C@H]45)n3)c(F)cc2OCC2COCCO2)c1=O (stereo partly drawn)"
  tested.on: "PKC mediated IL-2 production in human primary T cells"
  scale.unit: "µM"
  IC50: 1.3
- molecule: "Cc1cnc(Nc2cc(-n3nnn(C)c3=O)c(C3CC3)cc2F)nc1NC[C@@H]1CCCN2CCCC[C@H]12"
  tested.on: "PKC mediated IL-2 production in human primary T cells"
  scale.unit: "µM"
  IC50: 1.98
- molecule: "N#Cc1cc(Nc2ncc(F)c(NC[C@@H]3CCCN4CCCC[C@H]34)n2)ccc1C1CC1"
  tested.on: "PKC mediated IL-2 production in human primary T cells"
  scale.unit: "µM"
  IC50: 0.107
